FYI, the data here is from PubChem BioAssay AID248.

System: L1210 leukemia ip in BDF1 mice, survival T/C
Assay: NCI In Vivo Anticancer Drug Screen. Data for tumor model L1210 Leukemia (intraperitoneal) in B6D2F1 (BDF1) mice
Settings: endpoint: mean survival time; dose: 100.0 mg/kg/injection; schedule: Q04DX002 (ip); vehicle: Klucel (hydroxypropylcellulose) (HPC); higher = longer survival
Toxic doses and inconclusive results are not listed.
Entries annotated with measured T/C
PARAMETER MEASURED: T/C

>  <MOLECULE>
CC(=O)Nc1ccc2c(ccc3ccc4ccccc4c32)c1

>  <RESULT>
102 % of control

$$$$
>  <MOLECULE>
FC(F)(F)c1ccccc1NC(=S)N(Cc1ccccc1)Cc1ccccc1

>  <RESULT>
110 % of control

$$$$
>  <MOLECULE>
Cc1ncc(C(O)c2ccc(N(C)C)cc2)n1Cc1ccccc1 (stereo not given)

>  <RESULT>
111 % of control

$$$$
>  <MOLECULE>
CCCCS(=O)(=O)N1CC(C)OC(C)C1 (stereo not given)

>  <RESULT>
97 % of control

$$$$
>  <MOLECULE>
Cc1c(C)c(O)c(SC(CC(=O)O)C(=O)O)c(C)c1O (stereo not given)

>  <RESULT>
100 % of control

$$$$
>  <MOLECULE>
O=C1Nc2ccc(Br)cc2C1=Nc1ccc(Cl)cc1

>  <RESULT>
95 % of control

$$$$
>  <MOLECULE>
Cc1cccc2ccccc12

>  <RESULT>
107 % of control

$$$$
>  <MOLECULE>
Cc1ccc([N+](=O)[O-])cc1NC(=O)Nc1cccc(Cl)c1Cl

>  <RESULT>
86 % of control

$$$$
>  <MOLECULE>
CC(=O)Nc1ccc(Cl)cc1C(=O)c1ccccc1

>  <RESULT>
96 % of control

$$$$
>  <MOLECULE>
O=C(COc1cc(Cl)c(Cl)cc1Cl)NCCO

>  <RESULT>
92 % of control

$$$$

* * *

Entries annotated with measured T/C
Test system: L1210 leukemia ip in BDF1 mice, survival T/C
Test: NCI In Vivo Anticancer Drug Screen. Data for tumor model L1210 Leukemia (intraperitoneal) in B6D2F1 (BDF1) mice
Settings: endpoint: mean survival time; dose: 100.0 mg/kg/injection; schedule: Q04DX003 (ip); vehicle: acetone; higher = longer survival
Toxic doses and inconclusive results are not listed.
PARAMETER MEASURED: T/C

>  <COMPOUND>
CC1(C)CC2C(=O)c3ccccc3NC2c2ccccc21 (configuration not stated)

>  <ASSAY TARGET>
L1210 leukemia ip in BDF1 mice, survival T/C

>  <RESULT>
91 % of control

$$$$
>  <COMPOUND>
O=C1OC(Cl)(C(Cl)(Cl)Cl)C(=O)OC1(Cl)C(Cl)(Cl)Cl (configuration not stated)

>  <ASSAY TARGET>
L1210 leukemia ip in BDF1 mice, survival T/C

>  <RESULT>
98 % of control

$$$$
>  <COMPOUND>
CN1CCN(CCCN2c3ccccc3Sc3ccc(C(F)(F)F)cc32)CC1

>  <ASSAY TARGET>
L1210 leukemia ip in BDF1 mice, survival T/C

>  <RESULT>
121 % of control

$$$$
>  <COMPOUND>
C#CCOCCC(=O)O

>  <ASSAY TARGET>
L1210 leukemia ip in BDF1 mice, survival T/C

>  <RESULT>
106 % of control

$$$$
>  <COMPOUND>
COc1cccc(C2CCCCCC2OS(=O)(=O)c2ccc(C)cc2)c1OC (configuration not stated)

>  <ASSAY TARGET>
L1210 leukemia ip in BDF1 mice, survival T/C

>  <RESULT>
110 % of control

$$$$
>  <COMPOUND>
S=C(NNC(=S)Nc1ccc(Cl)cc1)NNc1ccccc1

>  <ASSAY TARGET>
L1210 leukemia ip in BDF1 mice, survival T/C

>  <RESULT>
97 % of control

$$$$
>  <COMPOUND>
COc1cc(NC(C)=O)ccn1

>  <ASSAY TARGET>
L1210 leukemia ip in BDF1 mice, survival T/C

>  <RESULT>
89 % of control

$$$$
